Reference source: ChEMBL document CHEMBL1144622

Target under test: Opioid receptors; delta & kappa (Homo sapiens) (UniProt P41145+P41143)
Sequence (P41143 whole entry, looked up): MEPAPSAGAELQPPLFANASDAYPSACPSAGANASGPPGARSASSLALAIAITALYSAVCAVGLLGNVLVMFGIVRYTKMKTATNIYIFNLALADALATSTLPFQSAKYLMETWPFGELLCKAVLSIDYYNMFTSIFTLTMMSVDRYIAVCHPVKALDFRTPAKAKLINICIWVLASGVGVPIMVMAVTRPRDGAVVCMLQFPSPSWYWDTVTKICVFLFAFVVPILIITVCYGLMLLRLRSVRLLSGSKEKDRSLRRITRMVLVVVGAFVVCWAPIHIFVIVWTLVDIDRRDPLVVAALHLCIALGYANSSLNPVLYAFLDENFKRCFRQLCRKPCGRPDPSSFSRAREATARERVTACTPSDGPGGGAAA
Sequence (P41145 whole entry, looked up): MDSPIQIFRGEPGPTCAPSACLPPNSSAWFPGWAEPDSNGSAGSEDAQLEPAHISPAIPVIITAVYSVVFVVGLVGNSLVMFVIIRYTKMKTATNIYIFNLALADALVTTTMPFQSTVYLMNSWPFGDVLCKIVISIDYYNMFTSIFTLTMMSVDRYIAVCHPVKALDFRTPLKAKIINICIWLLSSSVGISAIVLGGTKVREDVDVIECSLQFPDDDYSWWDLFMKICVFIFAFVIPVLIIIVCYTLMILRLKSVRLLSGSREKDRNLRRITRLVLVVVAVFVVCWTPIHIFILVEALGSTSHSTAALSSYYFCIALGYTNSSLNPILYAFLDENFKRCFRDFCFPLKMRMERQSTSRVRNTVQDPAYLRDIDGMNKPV
Protocol notes: Selectivity for human kappa opioid receptor over human delta opioid receptor
Format: functional
I'd be grateful if you could share measured Ratio Ki for these entries.
Give your answer as a number; write no unit.

The measured Ratio Ki associated with CN(C(=O)CC(=O)Nc1ccccc1)[C@H](CN1CC[C@H](O)C1)c1ccccc1 reads 25

The measured Ratio Ki associated with CN(C(=O)CC(=O)NCc1ccccc1)[C@H](CN1CC[C@H](O)C1)c1ccccc1 reads 40

The measured Ratio Ki associated with CN(C(=O)CC(=O)Nc1ccc(NS(C)(=O)=O)cc1)[C@H](CN1CC[C@H](O)C1)c1ccccc1 reads 39

The measured Ratio Ki associated with CN(C(=O)NCC(=O)Nc1ccccc1)[C@H](CN1CC[C@H](O)C1)c1ccccc1 reads 8.7

The measured Ratio Ki associated with CN(C(=O)CCC(=O)Nc1ccccc1)[C@H](CN1CC[C@H](O)C1)c1ccccc1 reads 220

The measured Ratio Ki associated with CN(C(=O)CC(=O)Nc1ccc(CNS(C)(=O)=O)cc1)[C@H](CN1CC[C@H](O)C1)c1ccccc1 reads 10

The measured Ratio Ki associated with CN(C(=O)CC(=O)Nc1nccs1)[C@H](CN1CC[C@H](O)C1)c1ccccc1 reads 71

The measured Ratio Ki associated with CN(C(=O)CCC(=O)Nc1nccs1)[C@H](CN1CC[C@H](O)C1)c1ccccc1 reads 14

The measured Ratio Ki associated with CN(C(=O)CC(=O)Nc1cccnc1)[C@H](CN1CC[C@H](O)C1)c1ccccc1 reads 15

The measured Ratio Ki associated with CN(C(=O)CCC(=O)Nc1cccnc1)[C@H](CN1CC[C@H](O)C1)c1ccccc1 reads 5
